This collection of values is drawn from the supplement of paper PMC9112550.

I'd be grateful if you could share measured shrunken log2 fold change for these entries.
System: Escherichia coli TOP10
Test Details: shrunken log2 fold change of peptide-encoding DNA abundance (4.5 h post-induction vs induction); higher = less antimicrobial activity (less host growth inhibition)
Condition Context: time post-induction: 4.5 h; library: site-saturation at positions 5, 18, 19, 20
Numbers only.

{"Residue String": "RRIRTRPPRLPRPRPRPRMLPRP", "Target": "Escherichia coli TOP10", "shrunken log2 fold change": 0.292}
{"Residue String": "RRIRIRPPRLPRPRPRPGSEPRP", "Target": "Escherichia coli TOP10", "shrunken log2 fold change": -0.187}
{"Residue String": "RRIRKRPPRLPRPRPRPDYDPRP", "Target": "Escherichia coli TOP10", "shrunken log2 fold change": 0.143}
{"Residue String": "RRIRSRPPRLPRPRPRPVKVPRP", "Target": "Escherichia coli TOP10", "shrunken log2 fold change": 0.0828}
{"Residue String": "RRIRRRPPRLPRPRPRPWQQPRP", "Target": "Escherichia coli TOP10", "shrunken log2 fold change": -0.0108}
{"Residue String": "RRIRWRPPRLPRPRPRPDWFPRP", "Target": "Escherichia coli TOP10", "shrunken log2 fold change": 0.147}
{"Residue String": "RRIRDRPPRLPRPRPRPNTSPRP", "Target": "Escherichia coli TOP10", "shrunken log2 fold change": -0.284}

Problem: API: value(readout= shrunken log2 fold change, system= Escherichia coli TOP10, query= `RRIRDRPPRLPRPRPRPGKVPRP` )
Result: -0.00262

----------
Tested on: Escherichia coli TOP10;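 further: peptides expressed intracellularly from a pBAD plasmid library in pooled LB shake-flask culture, induced with 0.3% L-arabinose, DNA abundance read by NGS, three biological replicates, DESeq2 with apeglm shrinkage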
Test Details: shrunken log2 fold change of peptide-encoding DNA abundance (4.5 h post-induction vs induction); higher = less antimicrobial activity (less host growth inhibition)
Condition Context: time post-induction: 4.5 h; library: site-saturation at positions 5, 18, 19, 20
Property Label: shrunken log2 fold change
Numbers only.

Recorded shrunken log2 fold change, per entry:
{"Residue String": "RRIRWRPPRLPRPRPRPCFWPRP", "Target": "Escherichia coli TOP10", "Observed Value": 0.213}
{"Residue String": "RRIRPRPPRLPRPRPRPAPQPRP", "Target": "Escherichia coli TOP10", "Observed Value": 0.461}
{"Residue String": "RRIRVRPPRLPRPRPRPHPWPRP", "Target": "Escherichia coli TOP10", "Observed Value": 0.0927}
{"Residue String": "RRIRPRPPRLPRPRPRPTIHPRP", "Target": "Escherichia coli TOP10", "Observed Value": -0.428}

Please state shrunken log2 fold change for every sequence in the list that follows.
1. RRIRIRPPRLPRPRPRPNATPRP
2. RRIRLRPPRLPRPRPRPPEAPRP

Result:
1: -0.12; 2: 0.255

Please report shrunken log2 fold change for every entry that follows.
1. RRIRKRPPRLPRPRPRPAHDPRP
2. RRIRGRPPRLPRPRPRPCHCPRP
3. RRIRCRPPRLPRPRPRPQWQPRP
4. RRIRERPPRLPRPRPRPCSMPRP
5. RRIRTRPPRLPRPRPRPWRAPRP
6. RRIRNRPPRLPRPRPRPKRMPRP
7. RRIRVRPPRLPRPRPRPPDWPRP

Result:
[0.536, -0.017, 0.0413, -0.0884, 0.21, -0.056, 0.46]
